- Test system: Ehrlich
- method.summary: Antitumor activity against mouse EAC cells implanted in Swiss albino mouse assessed as hemoglobin count in blood at 0.5 mg for 9 days (reference value: 8.15 g/dL)
- Format: functional
readout.kind: Activity (g/dL)
Give just the number in g/dL; leave the unit off.

Input: Report measured Activity; entry is `O=c1[nH]cc(F)c(=O)[nH]1`
Output: 12.96

Input: Report measured Activity; entry is `O=C1Nc2ccc(Br)cc2/C1=N/NC(=S)N/N=C/c1c(F)cccc1Cl`
Output: 9.96

Input: Report measured Activity; entry is `Cc1ccc2c(c1)/C(=N/NC(=S)N/N=C/c1c(F)cccc1Cl)C(=O)N2`
Output: 10.09

Input: Report measured Activity; entry is `Cc1ccc2c(c1)/C(=N/NC(=S)N/N=C/c1ccccn1)C(=O)N2`
Output: 12.93

Input: Report measured Activity; entry is `COc1ccc(/C=N/NC(=S)N/N=C2\C(=O)Nc3ccc(C)cc32)cc1O`
Output: 11.15

Input: Report measured Activity; entry is `COc1ccc(/C=N/NC(=S)N/N=C2\C(=O)Nc3ccc(Br)cc32)cc1O`
Output: 9.11

* * *

- Tested on: Ehrlich
- method.summary: Antitumor activity against mouse EAC cells implanted in Swiss albino mouse assessed as RBC count in blood at 0.5 mg for 9 days (reference value: 3.69 10^6/mm3)
- Format: functional
hey, just use 1 if measured Activity is less than 4 ×10⁶ /mm3, otherwise -1

Input: # TODO verify Activity < 4 ×10⁶ /mm3 strictly for this compound: `COc1ccc(/C=N/NC(=S)N/N=C2\C(=O)Nc3ccc(C)cc32)cc1O`
Output: -1

Input: # TODO verify Activity < 4 ×10⁶ /mm3 strictly for this compound: `Cc1ccc2c(c1)/C(=N/NC(=S)N/N=C/c1c(F)cccc1Cl)C(=O)N2`
Output: -1

Input: # TODO verify Activity < 4 ×10⁶ /mm3 strictly for this compound: O=c1[nH]cc(F)c(=O)[nH]1 [FLUOROURACIL]
Output: -1

Input: # TODO verify Activity < 4 ×10⁶ /mm3 strictly for this compound: `Cc1ccc2c(c1)/C(=N/NC(=S)N/N=C/c1ccccn1)C(=O)N2`
Output: -1

Input: # TODO verify Activity < 4 ×10⁶ /mm3 strictly for this compound: `COc1ccc(/C=N/NC(=S)N/N=C2\C(=O)Nc3ccc(Br)cc32)cc1O`
Output: 1

* * *

- System: Ehrlich
- method.summary: Antitumor activity against mouse EAC cells implanted in Swiss albino mouse assessed as WBC count in blood at 0.5 mg for 9 days (reference value: 23.96 10^3/mm3)
- Type: functional
hey, just use satisfied if measured Activity is less than 10 ×10³ /mm3, otherwise not satisfied

Input: # TODO verify Activity < 10 ×10³ /mm3 strictly for this compound: `COc1ccc(/C=N/NC(=S)N/N=C2\C(=O)Nc3ccc(Br)cc32)cc1O`
Output: not satisfied

Input: # TODO verify Activity < 10 ×10³ /mm3 strictly for this compound: `Cc1ccc2c(c1)/C(=N/NC(=S)N/N=C/c1ccccn1)C(=O)N2`
Output: satisfied

Input: # TODO verify Activity < 10 ×10³ /mm3 strictly for this compound: `Cc1ccc2c(c1)/C(=N/NC(=S)N/N=C/c1c(F)cccc1Cl)C(=O)N2`
Output: not satisfied

Input: # TODO verify Activity < 10 ×10³ /mm3 strictly for this compound: O=c1[nH]cc(F)c(=O)[nH]1 [FLUOROURACIL]
Output: satisfied

Input: # TODO verify Activity < 10 ×10³ /mm3 strictly for this compound: `O=C1Nc2ccc(Br)cc2/C1=N/NC(=S)N/N=C/c1c(F)cccc1Cl`
Output: not satisfied

Input: # TODO verify Activity < 10 ×10³ /mm3 strictly for this compound: `COc1ccc(/C=N/NC(=S)N/N=C2\C(=O)Nc3ccc(C)cc32)cc1O`
Output: satisfied

* * *

Assignment: determine reported pIC50 for the given compounds.
- System: COS-7
- method.summary: Growth inhibition of African green monkey COS7 cells by MTT assay
- Type: functional, cell-based
- measurement.setup: Chlorocebus aethiops
pIC50: −log10 of the molar value.

Input: Report measured pIC50; entry is `O=C1Nc2ccc(Br)cc2/C1=N/NC(=S)N/N=C/c1ccc(Br)cc1`
Output: 5.29

Input: Report measured pIC50; entry is `Cc1ccc(O)c(/C=N/NC(=S)N/N=C2\C(=O)Nc3ccc(C)cc32)c1`
Output: < 4.30

Input: Report measured pIC50; entry is `O=C1Nc2ccc(Br)cc2/C1=N/NC(=S)N/N=C/c1ccc(-c2ccccc2)cc1`
Output: < 4.30

Input: Report measured pIC50; entry is `COc1ccc(/C=N/NC(=S)N/N=C2\C(=O)Nc3ccc(Br)cc32)c(OC)c1`
Output: < 4.30

Input: Report measured pIC50; entry is `Cc1ccc2c(c1)/C(=N/NC(=S)N/N=C/c1ccccc1Br)C(=O)N2`
Output: < 4.30

Input: Report measured pIC50; entry is `O=C1Nc2ccc(Br)cc2/C1=N/NC(=S)N/N=C/c1c(Cl)cccc1Cl`
Output: 5.17

Input: Report measured pIC50; entry is `Cc1ccc2c(c1)/C(=N/NC(=S)N/N=C/c1ccc3ccccc3c1)C(=O)N2`
Output: < 4.30

Input: Report measured pIC50; entry is COc1cccc2c1C(=O)c1c(O)c3c(c(O)c1C2=O)C[C@@](O)(C(=O)CO)C[C@@H]3O[C@H]1C[C@H](N)[C@H](O)[C@H](C)O1 [DOXORUBICIN]
Output: 5.52

Input: Report measured pIC50; entry is `Cc1ccc(O)c(/C=N/NC(=S)N/N=C2\C(=O)Nc3ccc(Br)cc32)c1`
Output: < 4.30

* * *

Assignment: determine reported pIC50 for the given compounds.
- Tested on: COS-7
- method.summary: Growth inhibition of African green monkey COS7 cells by MTT assay
- Type: functional, cell-based
- measurement.setup: Chlorocebus aethiops
Friendly reminder that pIC50 comes from taking -log10 of the concentration in mol/L.

Input: Report measured pIC50; entry is `Cc1ccc2c(c1)/C(=N/NC(=S)N/N=C/c1c(F)cccc1Cl)C(=O)N2`
Output: 5.66

Input: Report measured pIC50; entry is `O=C1Nc2ccc(Br)cc2/C1=N/NC(=S)N/N=C/c1c(F)cccc1Cl`
Output: 5.59

Input: Report measured pIC50; entry is `Cc1ccc2c(c1)/C(=N/NC(=S)N/N=C/c1ccccn1)C(=O)N2`
Output: 5.67

* * *

- Test system: Ehrlich
- method.summary: Antitumor activity against mouse EAC cells implanted in Swiss albino mouse assessed as increase in mean life span at 0.5 mg for 9 days relative to control
- Assay type: functional
Assignment: determine reported ILS for the given molecules.
Give just the number in %; leave the unit off.

Input: Report measured ILS; entry is `COc1ccc(/C=N/NC(=S)N/N=C2\C(=O)Nc3ccc(C)cc32)cc1O`
Output: 110.9

Input: Report measured ILS; entry is `COc1ccc(/C=N/NC(=S)N/N=C2\C(=O)Nc3ccc(Br)cc32)cc1O`
Output: 24.1

Input: Report measured ILS; entry is `O=C1Nc2ccc(Br)cc2/C1=N/NC(=S)N/N=C/c1c(F)cccc1Cl`
Output: 72.4

Input: Report measured ILS; entry is `Cc1ccc2c(c1)/C(=N/NC(=S)N/N=C/c1ccccn1)C(=O)N2`
Output: 189.6

Input: Report measured ILS; entry is `O=c1[nH]cc(F)c(=O)[nH]1`
Output: 237.9

Input: Report measured ILS; entry is `Cc1ccc2c(c1)/C(=N/NC(=S)N/N=C/c1c(F)cccc1Cl)C(=O)N2`
Output: 72.4

* * *

- Tested on: COS-7
- method.summary: Growth inhibition of African green monkey COS7 cells by MTT assay
- Type: functional, cell-based
- measurement.setup: Chlorocebus aethiops
readout.kind: IC50

Input: Report measured IC50; entry is `O=C1Nc2ccc(Br)cc2/C1=N/NC(=S)N/N=C/c1ccc2ccccc2c1`
Output: > 50 µM

Input: Report measured IC50; entry is `COc1ccc(/C=N/NC(=S)N/N=C2\C(=O)Nc3ccc(Br)cc32)cc1O`
Output: 3.09 µM

Input: Report measured IC50; entry is `Cc1ccc2c(c1)/C(=N/NC(=S)N/N=C/c1ccc(Br)cc1)C(=O)N2`
Output: > 50 µM

Input: Report measured IC50; entry is `Cc1ccc2c(c1)/C(=N/NC(=S)N/N=C/c1ccc(-c3ccccc3)cc1)C(=O)N2`
Output: > 50 µM

Input: Report measured IC50; entry is `COc1ccc(/C=N/NC(=S)N/N=C2\C(=O)Nc3ccc(C)cc32)cc1O`
Output: 3.19 µM

Input: Report measured IC50; entry is `O=C1Nc2ccc(Br)cc2/C1=N/NC(=S)N/N=C/c1ccccc1Br`
Output: > 50 µM

Input: Report measured IC50; entry is `Cc1ccc2c(c1)/C(=N/NC(=S)N/N=C/c1cc3ccccc3c3ccccc13)C(=O)N2`
Output: > 50 µM
